Biological target: T1, corticotropin-releasing hormone (CRH) peptide (human and mouse (same sequence), not fully specified)
T1 peptide: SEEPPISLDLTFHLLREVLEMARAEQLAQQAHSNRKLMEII
Test: cell-based or functional assay
# Lookup of reported hCRHR1 Luciferase Reporter Assay IC50 keyed by entry
Expressed in nM, but write only the number.

- BINDER: "PR302038 (antibody, human IgG1, kappa, V domains shown, humanized variant of PR301777) VH: EMQLVESGGGLVQPGGSLRLSCAASGFTFSNYWMNWVRQAPGKGLEWVAEIRLKSNNYATHYAESVKGRFTISRDDSKSSVYLQMNSLKTEDTAVYYCTVGTLVYWGQGTLVTVSS VL: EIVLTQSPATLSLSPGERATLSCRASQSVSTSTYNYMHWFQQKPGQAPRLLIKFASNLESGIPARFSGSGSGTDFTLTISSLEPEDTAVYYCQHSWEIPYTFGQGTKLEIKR"
  hCRHR1 Luciferase Reporter Assay IC50 [nM]: 3.34

State its hCRHR1 Luciferase Reporter Assay IC50 for this binder: PR302045 (antibody, human IgG1, kappa, V domains shown, humanized variant of PR301777) VH: EVQLVESGGGLVQPGGSLKLSCAASGFTFSNYWMNWVRQASGKGLEWVGEIRLKSNNYATHYAESVKGRFTISRDDSKNTAYLQMNSLKTEDTAVYYCTRGTLVYWGQGTLVTVSS VL: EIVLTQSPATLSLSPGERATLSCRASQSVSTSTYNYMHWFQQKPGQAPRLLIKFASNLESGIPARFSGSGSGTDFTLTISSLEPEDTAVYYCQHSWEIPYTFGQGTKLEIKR 15.3
